- Tested on: SW948 cells
- test-method-notes: Cell survival / sensitivity of SW948
- Type: cell-based
assay-metric: cell viability, single agent

molecule: D269H: rhTRAIL carrying mutation D269H; DR5-selective TRAIL variant (protein) MVRERGPQRVAAHITGTRGRSNTLSSPNSKNEKALGRKINSWESSRSGHSFLSNLHLRNGELVIHEKGFYYIYSQTYFRFQEEIKENTKNDKQMVQYIYKYTSYPDPILLMKSARNSCWSKDAEYGLYSIYQGGIFELKENDRIFVSVTNEHLIDMHHEASFFGAFLVG
value-observed: decreased cell viability
//
molecule: D269HE195R: rhTRAIL (114-281) carrying mutations D269H and E195R; DR5-selective TRAIL variant (protein) MVRERGPQRVAAHITGTRGRSNTLSSPNSKNEKALGRKINSWESSRSGHSFLSNLHLRNGELVIHEKGFYYIYSQTYFRFQERIKENTKNDKQMVQYIYKYTSYPDPILLMKSARNSCWSKDAEYGLYSIYQGGIFELKENDRIFVSVTNEHLIDMHHEASFFGAFLVG
value-observed: decreased cell viability
//
molecule: M1: rhTRAIL carrying mutations D269H, E194I and I196S (protein, UniProt P50591 1-281, looked up, variant D269H E194I I196S) Tumor necrosis factor ligand …: MAMMEVQGGPSLGQTCVLIVIFTVLLQSLCVAVTYVYFTNELKQMQDKYSKSGIACFLKEDDSYWDPNDEESMNSPCWQVKWQLRQLVRKMILRTSEETISTVQEKQQNISPLVRERGPQRVAAHITGTRGRSNTLSSPNSKNEKALGRKINSWESSRSGHSFLSNLHLRNGELVIHEKGFYYIYSQTYFRFQIESKENTKNDKQMVQYIYKYTSYPDPILLMKSARNSCWSKDAEYGLYSIYQGGIFELKENDRIFVSVTNEHLIDMHHEASFFGAFLVG
value-observed: decreased cell viability
